- system: DLG4_3, P78352
- Sequence (P78352 306-403): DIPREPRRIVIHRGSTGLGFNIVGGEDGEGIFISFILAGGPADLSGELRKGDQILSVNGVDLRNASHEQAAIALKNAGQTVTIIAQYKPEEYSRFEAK
- assay.explanation: holdup assay
- Set-up: key: below the threshold = too weak to quantify, mostly under pKd 3.1 to 4
- test.context: plain residues with an end cap or a label only (N-terminal biotin on a linker: ado-ado)

| binder | pKd |
| --- | --- |
| QKAPTKEFYA [SDC2, P34741] | below the threshold |
| AQRARSPSDV [GPR12, P47775] | below the threshold |
| PYSESDDDWC [CACNA1A, O00555] | below the threshold |
| APIAGFSSFV [SDK2, Q58EX2] | below the threshold |
| LPAVCYDIDI [PTTG2, Q9NZH5] | below the threshold |
| RSSGGDDFWF [KCNV1, Q6PIU1] | below the threshold |
| PSVGSKKTVL [REELD1, A0A1B0GV85] | below the threshold |
| SRSVVESDEL [MYPN, Q86TC9] | below the threshold |
| GTGYDRKDYV [CLDN3, O15551] | below the threshold |
| DFLSTFHIRI [CIB2, O75838] | 3.5 |
| PTPDLPQTRV [KLHDC7A, Q5VTJ3] | 3.72 |
| QRPYRRGSEI [KCNJ18, B7U540] | below the threshold |
| NVYGIESVKI [GRIA2, P42262] | below the threshold |
